Target: Chitotriosidase-1 (Mus musculus, UniProt Q9D7Q1)
Sequence (Q9D7Q1 whole entry): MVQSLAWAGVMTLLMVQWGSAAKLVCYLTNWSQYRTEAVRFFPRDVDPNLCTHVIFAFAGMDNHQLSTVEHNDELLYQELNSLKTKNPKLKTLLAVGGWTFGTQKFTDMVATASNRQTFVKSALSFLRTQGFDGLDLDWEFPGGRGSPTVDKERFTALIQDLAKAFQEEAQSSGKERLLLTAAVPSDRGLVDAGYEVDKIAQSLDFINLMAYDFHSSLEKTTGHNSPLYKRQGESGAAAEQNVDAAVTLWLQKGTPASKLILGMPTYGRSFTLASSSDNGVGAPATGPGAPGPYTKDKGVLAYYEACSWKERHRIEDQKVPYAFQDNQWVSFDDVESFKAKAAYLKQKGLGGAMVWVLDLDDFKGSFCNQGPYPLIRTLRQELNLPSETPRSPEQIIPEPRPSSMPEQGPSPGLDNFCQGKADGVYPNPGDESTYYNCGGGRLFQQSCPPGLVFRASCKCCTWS
Test: Inhibition of full-length C-terminal his-tagged mouse CHIT1 expressed in CHO-K1 cells assessed as reduction in chitinolytic activity using 4-methylumbelliferyl-beta-D-N,N',N\"-triacetylchitotrioside as substrate after 60 mins by fluorometric assay
pIC50: −log10 of the molar value.

COMPOUND: CO[C@H]1CN(C2CCN(c3nnc(N)[nH]3)CC2)[C@H]1Cc1ccc(Cl)cc1
pIC50: 5.26
--
COMPOUND: C[C@H](O)CN(CCc1ccc(Cl)cc1)C1CCN(c2nc(N)n[nH]2)CC1
pIC50: 5.63
--
COMPOUND: COC(C)(C)CN(CCc1ccc(Cl)cc1)C1CCN(c2nc(N)n[nH]2)CC1
pIC50: 5.44
--
COMPOUND: Nc1nnc(N2CCC(N3C[C@@H](O)C[C@@H]3Cc3ccc(Cl)cc3)CC2)[nH]1
pIC50: 6.28
--
COMPOUND: C[C@@H](O)CN(CCc1ccc(Cl)cc1)C1CCN(c2nc(N)n[nH]2)CC1
pIC50: 5.17
--
COMPOUND: Nc1n[nH]c(N2CCC(N3CCCC(c4ccc(Cl)cc4)C3)CC2)n1 (stereo not given)
pIC50: 4.72
--
COMPOUND: Nc1n[nH]c(N2CCC(N(CCc3ccc(Cl)cc3)CC3CCCO3)CC2)n1 (stereo not given)
pIC50: 5.97
--
COMPOUND: Nc1n[nH]c(N2CCC(N(CCc3ccc(Cl)cc3)C3COC3)CC2)n1
pIC50: 5.26
--
COMPOUND: Nc1n[nH]c(N2CCC(N(CCc3ccc(Cl)cc3)CC3CCCCO3)CC2)n1 (stereo not given)
pIC50: 6.12
--
COMPOUND: CNC(=O)CN(CCc1ccc(Cl)cc1)C1CCN(c2nc(N)n[nH]2)CC1
pIC50: 4.32

----------
Target: Chitotriosidase-1 (Mus musculus)
Assay: Inhibition of full-length C-terminal his-tagged mouse CHIT1 expressed in CHO-K1 cells assessed as reduction in chitinolytic activity using 4-methylumbelliferyl-beta-D-N,N',N\"-triacetylchitotrioside as substrate after 60 mins by fluorometric assay
The molecules listed here are annotated with their IC50.

SMILES: CC(C)(O)CN(CCc1ccc(Cl)cc1)C1CCN(c2nc(N)n[nH]2)CC1
IC50 / µM: 4.7

SMILES: COCCN(CCc1ccc(Cl)cc1)C1CCN(c2nc(N)n[nH]2)CC1
IC50 / µM: 1.7

SMILES: CC(=O)NCCN(CCc1ccc(Cl)cc1)C1CCN(c2nc(N)n[nH]2)CC1
IC50 / µM: 8.1

SMILES: CO[C@@H](C)CN(CCc1ccc(Cl)cc1)C1CCN(c2nc(N)n[nH]2)CC1
IC50 / µM: 1.15

SMILES: Nc1nnc(N2CCC(N3CCC[C@@H]3Cc3ccc(Cl)cc3)CC2)[nH]1
IC50 / µM: 0.43

SMILES: CO[C@H]1C[C@H](Cc2ccc(Cl)cc2)N(C2CCN(c3nnc(N)[nH]3)CC2)C1
IC50 / µM: 0.345

SMILES: CO[C@H](C)CN(CCc1ccc(Cl)cc1)C1CCN(c2nc(N)n[nH]2)CC1
IC50 / µM: 12.5

SMILES: Nc1nnc(N2CCC(N3CCCC[C@@H]3Cc3ccc(Cl)cc3)CC2)[nH]1
IC50 / µM: 0.087

SMILES: Nc1nc(N2CCC(N3C[C@H](O)C[C@@H]3Cc3ccc(Cl)cc3)CC2)n[nH]1
IC50 / µM: 0.135

SMILES: Nc1n[nH]c(N2CCC(N(CCc3ccc(Cl)cc3)CC(=O)O)CC2)n1
IC50 / µM: 21

SMILES: Nc1n[nH]c(N2CCC(N(CCO)CCc3ccc(Cl)cc3)CC2)n1
IC50 / µM: 4.8

SMILES: Nc1nnc(N2CCC(N3CCOC[C@@H]3Cc3ccc(Cl)cc3)CC2)[nH]1
IC50 / µM: 0.074

----------
Each record here notes measured IC50.
Target: Chitotriosidase-1 (Mus musculus)
Experiment: Inhibition of full-length C-terminal his-tagged mouse CHIT1 expressed in CHO-K1 cells assessed as reduction in chitinolytic activity using 4-methylumbelliferyl-beta-D-N,N',N\"-triacetylchitotrioside as substrate after 60 mins by fluorometric assay

SMILES: CNC(=O)NCCN(CCc1ccc(Cl)cc1)C1CCN(c2nc(N)n[nH]2)CC1
UNIT_SPEC: µM
IC50: 9.1

SMILES: CS(=O)(=O)NCCN(CCc1ccc(Cl)cc1)C1CCN(c2nc(N)n[nH]2)CC1
UNIT_SPEC: µM
IC50: 12.5

SMILES: CNS(=O)(=O)CCN(CCc1ccc(Cl)cc1)C1CCN(c2nc(N)n[nH]2)CC1
UNIT_SPEC: µM
IC50: 7.55

----------
Molecular target: Chitotriosidase-1 (Homo sapiens)
Experiment: Inhibition of full-length C-terminal his-tagged human CHIT1 expressed in CHOK1 cells assessed as reduction in chitinolytic activity using 4-methylumbelliferyl-beta-D-N,N',N\"-triacetylchitotrioside as substrate after 60 mins by fluorometric assay
pIC50: −log10 of the molar value.
# label = satisfied if pIC50 >= 6 else not satisfied

COMPOUND: Nc1n[nH]c(N2CCC(N(CCO)CCc3ccc(Cl)cc3)CC2)n1
ASSIGNED_CATEGORY: satisfied

COMPOUND: CNC(=O)CN(CCc1ccc(Cl)cc1)C1CCN(c2nc(N)n[nH]2)CC1
ASSIGNED_CATEGORY: not satisfied

COMPOUND: CO[C@@H]1C[C@H](Cc2ccc(Cl)cc2)N(C2CCN(c3n[nH]c(N)n3)CC2)C1
ASSIGNED_CATEGORY: satisfied

COMPOUND: CC(C)(O)CN(CCc1ccc(Cl)cc1)C1CCN(c2nc(N)n[nH]2)CC1
ASSIGNED_CATEGORY: satisfied

COMPOUND: Nc1n[nH]c(N2CCC(N(CCc3ccc(Cl)cc3)CC(=O)O)CC2)n1
ASSIGNED_CATEGORY: not satisfied

COMPOUND: C[C@H](O)CN(CCc1ccc(Cl)cc1)C1CCN(c2nc(N)n[nH]2)CC1
ASSIGNED_CATEGORY: satisfied

COMPOUND: C[C@@H](O)CN(CCc1ccc(Cl)cc1)C1CCN(c2nc(N)n[nH]2)CC1
ASSIGNED_CATEGORY: satisfied

COMPOUND: Nc1n[nH]c(N2CCC(N3CCCC(c4ccc(Cl)cc4)C3)CC2)n1 (stereo not drawn)
ASSIGNED_CATEGORY: not satisfied

COMPOUND: CO[C@H]1C[C@H](Cc2ccc(Cl)cc2)N(C2CCN(c3nnc(N)[nH]3)CC2)C1
ASSIGNED_CATEGORY: satisfied

COMPOUND: Nc1nnc(N2CCC(N3CCCC[C@@H]3Cc3ccc(Cl)cc3)CC2)[nH]1
ASSIGNED_CATEGORY: satisfied

----------
Target: Chitotriosidase-1 (Homo sapiens, UniProt Q13231)
Sequence (Q13231 whole entry): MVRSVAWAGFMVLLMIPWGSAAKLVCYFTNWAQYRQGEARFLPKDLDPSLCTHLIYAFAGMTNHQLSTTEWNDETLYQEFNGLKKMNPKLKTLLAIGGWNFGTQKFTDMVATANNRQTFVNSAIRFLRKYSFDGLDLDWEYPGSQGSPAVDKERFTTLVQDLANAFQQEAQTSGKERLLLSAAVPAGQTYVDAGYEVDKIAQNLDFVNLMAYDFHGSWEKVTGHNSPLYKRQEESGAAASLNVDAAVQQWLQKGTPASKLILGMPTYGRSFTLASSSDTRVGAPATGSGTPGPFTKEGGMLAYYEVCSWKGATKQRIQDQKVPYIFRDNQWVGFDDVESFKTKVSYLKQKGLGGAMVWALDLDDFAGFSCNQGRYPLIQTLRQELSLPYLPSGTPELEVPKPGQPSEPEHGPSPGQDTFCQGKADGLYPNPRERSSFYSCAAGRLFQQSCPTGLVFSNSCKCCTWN
Assay: Inhibition of full-length C-terminal his-tagged human CHIT1 expressed in CHOK1 cells assessed as reduction in chitinolytic activity using 4-methylumbelliferyl-beta-D-N,N',N\"-triacetylchitotrioside as substrate after 60 mins by fluorometric assay
Assay type: cell-based
Listing of entries alongside the reported IC50.
VALUE_TYPE: IC50 (nM)

SMILES: CS(=O)(=O)NCCN(CCc1ccc(Cl)cc1)C1CCN(c2nc(N)n[nH]2)CC1
REPORTED_RESULT: 1200

SMILES: CNC(=O)NCCN(CCc1ccc(Cl)cc1)C1CCN(c2nc(N)n[nH]2)CC1
REPORTED_RESULT: 1430

SMILES: CNS(=O)(=O)CCN(CCc1ccc(Cl)cc1)C1CCN(c2nc(N)n[nH]2)CC1
REPORTED_RESULT: 870
